- protocol_summary: Phase I study CXR1002-001: plasma pharmacokinetics (LC-MS/MS)
- Format: in vivo, human
- condition_info: human, plasma, oral, 1000 mg, Patient 040, 1000 mg, person, plasma, 2 hr; read-out: Concentration
- Excerpt: PK samples, PD (fasting) samples, blood glucose, and blood triglyceride samples, were taken over a 6-week period. Dose limiting toxicity (DLT) will be based on the toxicity assessments over the first 3-week period of the repeat dosing schedule. […]
measurement_name: concentration at 2 h (µM)
Value expressed in µM; do not type the unit.

Entry O=C(O)C(F)(F)C(F)(F)C(F)(F)C(F)(F)C(F)(F)C(F)(F)C(F)(F)F [CXR1002] ; concentration at 2 h = 188
